Record form. Attribute: EC50. Fill in for each entry.
target: Gal4 DNA binding domain fused to the LBD of LXRα in HEK293 cells (Homo sapiens (Human)); experiment: LXR luciferase transcriptional reporter gene assay, agonist mode, LXRα; format: cell-based
Sequence (Q13133 209-447): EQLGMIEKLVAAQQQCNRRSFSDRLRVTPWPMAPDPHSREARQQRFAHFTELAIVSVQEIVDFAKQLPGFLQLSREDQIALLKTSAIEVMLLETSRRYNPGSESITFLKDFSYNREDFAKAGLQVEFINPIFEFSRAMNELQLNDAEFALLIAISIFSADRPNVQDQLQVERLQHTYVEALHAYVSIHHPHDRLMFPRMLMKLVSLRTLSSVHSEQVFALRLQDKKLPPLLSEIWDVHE
One number for each entry, in nM.

>>> df
                                   molecule  quantity_measured  endpoint_value
0  CC(C)[C@@H]1CN(c2cccc(S(C)(=O)=O)c2)CCN1c1nccc(OC(F)F)n1               EC50            2590

// next item, EC50 requested
Prompt line: What EC50 value was documented for this molecule, CC(C)[C@@H]1CN(c2ccc(F)c(S(C)(=O)=O)c2)CCN1C(=O)OC(C)C(F)(F)F (stereo partly shown) ?
Response line: 1590

---

Record form. Attribute: Cell LXRβ efficacy. Fill in for each entry.
target: Gal4 DNA binding domain fused to the LBD of LXRβ in HEK293 cells (Homo sapiens (Human), UniProt P55055); assay: cell-based; details: Biological Test Example 2, agonist mode
Sequence (P55055 222-460 limits assumed): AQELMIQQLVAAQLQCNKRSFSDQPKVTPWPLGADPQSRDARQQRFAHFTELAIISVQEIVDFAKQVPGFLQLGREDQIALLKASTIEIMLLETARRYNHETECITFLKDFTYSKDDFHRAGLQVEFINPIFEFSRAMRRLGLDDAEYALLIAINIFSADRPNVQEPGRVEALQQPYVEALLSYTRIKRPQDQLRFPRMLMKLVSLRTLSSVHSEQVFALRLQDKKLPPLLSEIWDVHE
Answers are plain numbers, in %.

Examples with their reported Cell LXRβ efficacy follow.
In [3]: df
Out[3]:
                                   compound  measurement_units  endpoint_value
0  CS(=O)(=O)c1cccc(N2CCN(C[C@@H]3C[C@@H]4[C@H](C3)C4(F)F)[C@H](c3ccccc3)C2)c1 [48-67]                  %              47
1  CC(C)[C@H]1CN(c2ccc(C#N)c(S(C)(=O)=O)c2)CCN1C[C@H]1CC[C@@H](C(F)(F)F)CC1 [Cpd No 50-1]                  %              88
2  CS(=O)(=O)c1cc(N2CCN(C[C@H]3CC[C@H](C(F)(F)F)CC3)[C@@H](c3ccccc3)C2)ccc1CO (single isomer, unassigned) [48-45]                  %              33

// next item, Cell LXRβ efficacy requested
Prompt line: What Cell LXRβ efficacy value was documented for this compound, CS(=O)(=O)c1cccc(N2CCN(C[C@@H]3C[C@H]4CC[C@@H](C3)N4CC(F)(F)F)[C@H](c3ccccc3)C2)c1 [48-75] ?
Response line: 21

---

biological target: LXR α LBD protein (Homo sapiens (Human)); assay: Human LXRα coactivator recruitment FRET assay, agonist mode; type: biochemical; conditions: Biological Test Example 3, agonist mode
EC50 less than 10 µM is class 1; EC50 greater than or equal to 10 µM is class 0.

Previously resolved entries follow.
In [3]: df
Out[3]:
                                   compound                              assay_target    group
0  CS(=O)(=O)c1cccc(N2CCN(CC3CCOCC3)[C@@H](c3ccccc3)C2)c1 [51-5]  LXR α LBD protein (Homo sapiens (Human))  class 0
1  CS(=O)(=O)c1cc(N2CCN(C[C@H]3CC[C@H](C(F)(F)F)CC3)[C@H](c3ccccc3)C2)ccc1C#N (single isomer, unassigned) [50-3]  LXR α LBD protein (Homo sapiens (Human))  class 0
2  CS(=O)(=O)c1cccc(N2CCN(CC3CCN(CC(F)(F)F)CC3)[C@H](c3ccccc3)C2)c1 (single isomer, unassigned) [48-51]  LXR α LBD protein (Homo sapiens (Human))  class 1
3  CS(=O)(=O)c1cccc(N2CCN(CC3CCN(CC(F)(F)F)CC3)[C@@H](c3ccccc3)C2)c1 (single isomer, unassigned) [48-52]  LXR α LBD protein (Homo sapiens (Human))  class 1
4  CS(=O)(=O)c1cccc(N2CCN(C[C@H]3CCN(CC(F)(F)F)C3)[C@@H](c3ccccc3)C2)c1 (single isomer, unassigned) [48-63]  LXR α LBD protein (Homo sapiens (Human))  class 0
5  CS(=O)(=O)c1cc(N2CCN(C[C@H]3CC[C@H](C(F)(F)F)CC3)[C@@H](c3ccccc3)C2)ccc1C#N (single isomer, unassigned) [50-4]  LXR α LBD protein (Homo sapiens (Human))  class 1

Prompt line: For CS(=O)(=O)c1cccc(N2CCN(CC3CCCOC3)[C@@H](c3ccccc3)C2)c1 (stereo partly shown) [51-4] , is the recorded EC50 below the cut-off of 10 µM?
Response line: class 0
